experimentSummary: PET hydrolysis, aromatic products released after 48 h (umol product/mg enzyme); higher = more PET depolymerization activity
studyConditions: substrate: cryPow; 60 °C; pH 5.5
# PET hydrolysis values compiled below
property: PET hydrolysis

biopolymersequence="ADNPHQRGPNPTQASVAASRGTFATSETSVGGGNGFGGAKIYYPTDTSQGKFAALAVSPGYTATWAAEGAWMGHWLASFGFVIIGIDTISRTDWDVARGDQLLAALDYLTQRSSVRDRVDASRVGVMGHSMGGGGAISAGLKRPSLKVVIGNAPYSASQNLTNMRVPVALLAGQRDTTVTPATTNSYYNQVPATTEKMYLELTNAPHSFPTSNNSVMTRKVIPWMKIFLDQDTRYQQFLCPLLDNTGIRTYRSSCPLIGDPMPPADTYRLAGAASGKCADVEGRSQANGAKLLLWTCNGQTNQRWTQTATGELRVYDNPKCVEAGTSAQGTRVTINACNGGNSQKWTVNANGTVTNAVSGRCLDAAGTADNSPIVVNTCTGAGSQNWSKRS [TEP049]" valuemeasured="< 3"
biopolymersequence="MPPPPPPPPPVQTVTVEPGYGFGGGTIYYPQESTGRLPVVAAVPGFTETQEAVAWYGPLLARRGNIVITIDTISPTNAPKTRADQALAAIDYVVTQSAVSDIADASRTAVMGHSMGGGASLFAALKRPTLKAIVPLAPWARTTDFSGVAVPTLIVGCENDGIAAVGTYAEPFYESIPATTPKAYLEMAGGNHYCTNSEDPVIAGYVSAWTDRFLKGDTTASSRLCPPSPVGPISEYRSNCPY [TEP189]" valuemeasured="< 3"
biopolymersequence="MPPPDSGAAAHERVHAEPSDPATVGSAGGNPFARGPDPTLASVAAEFGPFATTQLSVPPGHGFNGGYVYYPTDASPTFGAVAIVPGYTALFADEEAWMGPRLASFGFVVIGIETNSREDWDRARGAQLLAALDYVTQHSTVRTRVDSSRLAVIGHSMGGGGAFAAATRRPSLKAVVGLAPYFPSGDLATVRVPTLIIGGQRDTTVTPSYLDDLYATLPTRTPSAYLMLADADHLFPTRPNPVEMRLLIPWLKIFVDRDTRYVRFLCPLADRSGIAQYRVTCPLVPPA [TEP003]" valuemeasured="< 3"
biopolymersequence="ADNPYQRGPEPTTSSVAATRGTFATAEVSVSKGNGFGGGKIYYPTDTSKGTFGAIAVVPGYTATWAAEGAWMGPWLASFGFVVIGIDTNSRTDYDTARGTQLLAALDYLTQKSSVRSRVDVKRLSVMGHSMGGGGAMYAALHRPSLWAAVGNAPFSPSQNLKSDRVPTLLLAGQKDTTVTPSSVVGLYNGIPAATEKGYLELTGAAHNFPTRSNSVMMRKVVPWLKIFVDHDTRYGQFLCPSLKDTTGITSYRSTCPLTTAGQ [ESM078]" valuemeasured="< 3"
biopolymersequence="ATTSFQRGPAPTTASIQATSGPFATSQTTVSRISVTGFGGGDIYYPTSTSSGTFGAVAIAPGYTALRSSMAWLAPRIASQGFVVFNIDTLTTSDQPATRGTELLAALDYLTTRSTVRTRIDTTRLAVMGHSMGGGGTLEAAKSRPSLQAAIPLTPWDLNKSFAGLAVPTLIIGAQADTVAPVSQHAKPFFTSLPSGLDKAYLELAGASHFAPNTSNTTIASISIAWLKRFVDDDTRYDQFLCPGPTVGTAVSQFTTNCPHIS [ESM156]" valuemeasured="< 3"
biopolymersequence="GETAQTTDVSAQSQFQRGPNPTVSSIEARTGHYRTSTTRVSSFASGFGGGTIYYPTTTSDGTFGGVAVAPGYTASSSTMDWLGPRIASQGFVVFVIDTNTRLDQPSSRGRQLLAALDYLTERSSERHRVDSNRLAVMGHSMGGGGALEATISRPSLKASIPLTPWNLTKNWSRVTTPTLIVGAENDSVASVRSHSIPFYTSLSSSTDRMYVELDGASHFAPNVSNTTIAKYSISWLKRFVDDDTRYDQFLCPLPNERAISDIRGNCPR [DP090]" valuemeasured="< 3"
